Cited source for all entries: patent US8957087B2

# Test system: lung cancer cell A549
# procedure details: Effects on the adhesive ability of lung cancer cell A549
# Assay type: cell-based, human
# assay setup: Final concentration 1 x 1.0*10^(−5) mol/L
Decide using Inhibition rate, adhesion ability of human lung cancer cell A549 alone. Strictly below 70%: criterion met. Equal to or above 70%: criterion not met.

Past entries and their recorded results:
COc1ccc2nccc(Oc3ccc(NC(=O)Nc4ccc(Br)c(C(F)(F)F)c4)cc3)c2c1 [Compound 18]	criterion not met
CNC(=O)c1ncc(Oc2ccc(NC(=O)Nc3ccc(F)c(C(F)(F)F)c3)cc2)c2ccc(N)cc12 [Compound 11]	criterion met
CCNC(=O)c1cc(Oc2ccc(NC(=O)Nc3ccc(Cl)c(OC)c3)c(OC)c2)c2ccc([N+](=O)[O-])cc2n1 [Compound 36]	criterion not met
CNC(=O)c1ncc(Oc2ccc(NC(=O)Nc3ccc(Br)c(C(F)(F)F)c3)cc2)c2ccc(N)cc12 [Compound 12]	criterion met

Proceed to the following item.
### Prompt Record CNC(=O)c1cc(Oc2ccc(NC(=O)Nc3ccc(F)c(C(F)(F)F)c3)cc2)c(C)[nH]1 [Compound 14] : is its Inhibition rate, adhesion ability of human lung cancer cell A549 strictly below 70%?
### Response criterion met
